- PROTOCOL_NOTES: in vitro
- COND: human, Caco-2
VALUE_TYPE: Papp A→B at 2 h (×10⁻⁶ cm/s)

COMPOUND_SMILES: Cc1cn2c(C(=O)NCc3ccc(N4CCN(c5ccc(C(F)(F)F)cn5)CC4)c(F)c3)c(C)nc2s1
MEASURED_NUMBER: 0.731

====

Quick list: solubility per entry.
- PROTOCOL_NOTES: physchem
- COND: pH 6.8, aqueous buffer, kinetic from dmso stock

COMPOUND_SMILES: CCc1nc2sc(C)cn2c1C(=O)NCc1ccc2c(c1)CCO2
solubility: ≥ 200 µM
--
COMPOUND_SMILES: Cc1cn2c(C(=O)NCc3ccc4c(c3)CCO4)c(C)nc2s1
solubility: ≥ 200 µM
--
COMPOUND_SMILES: Cc1cn2c(C(=O)NCc3ccc(N4CCS(=O)(=O)CC4)c(F)c3)c(C)nc2s1
solubility: > 200 µM
